Biological target: Stimulator of interferon genes protein (Homo sapiens, UniProt Q86WV6, G230A/R293Q/R71H)
Sequence (Q86WV6 whole entry R71H/G230A/R293Q): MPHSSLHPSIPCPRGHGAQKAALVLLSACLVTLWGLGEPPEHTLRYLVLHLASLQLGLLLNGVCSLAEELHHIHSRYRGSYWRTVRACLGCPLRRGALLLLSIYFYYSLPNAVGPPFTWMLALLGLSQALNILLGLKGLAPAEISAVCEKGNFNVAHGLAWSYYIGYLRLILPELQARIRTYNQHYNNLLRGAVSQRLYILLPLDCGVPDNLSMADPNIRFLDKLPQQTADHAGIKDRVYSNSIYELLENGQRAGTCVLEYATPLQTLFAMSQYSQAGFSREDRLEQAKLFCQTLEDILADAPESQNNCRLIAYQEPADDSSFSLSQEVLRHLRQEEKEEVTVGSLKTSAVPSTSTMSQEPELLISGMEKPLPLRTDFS
Assay: Inhibition of cGAMP-induced STING HAQ mutant transfected in human THP1-Blue ISG cells preincubated with compound for 6 hrs followed by cGAMP addition and measured after 18 hrs by QUANTI-Blue based microplate reader analysis
Assay type: cell-based
pIC50: −log10 of the molar value.
endpoint-name: pIC50

Illustrative cases are given below, each with its answer.
compound	pIC50
COc1ccc2c(c1)C(=O)N(c1ccc(C(C)(C)C)c(F)c1)C(c1cc3cc(-c4ccc(C(=O)Nc5ccc(O)c(NS(C)(=O)=O)c5)cc4)ccc3o1)C2C(N)=O (centres undefined)	6.96
CC(C)(C)c1ccc(N2C(=O)c3cc(F)ccc3C(C(N)=O)C2c2cc3cc(-c4ccc(C(=O)Nc5ccc(O)c(NS(C)(=O)=O)c5)cc4)ccc3s2)cc1Cl (centres undefined)	6.35
CCS(=O)(=O)Nc1cc(NC(=O)c2ccc(-c3ccc4oc(C5C(C(N)=O)c6ccccc6C(=O)N5c5ccc(C(C)(C)C)c(Cl)c5)cc4c3)cc2)ccc1O (centres undefined)	6.70
CN1C(=O)c2ccccc2C(C(N)=O)C1c1cc2cc(-c3ccc(C(=O)Nc4ccc(O)c(NS(C)(=O)=O)c4)cc3)ccc2o1 (centres undefined)	5.19

P. CC(C)(C)c1ccc(N2C(=O)c3ccccc3C(C(N)=O)C2c2ccc(Oc3ccc(C(=O)Nc4cc(F)c(O)c(F)c4)cc3)cc2)cc1Cl (centres undefined)
Q. CC(C)(C)c1ccc(N2C(=O)c3ccccc3C(C(N)=O)C2c2cc3cc(-c4ccc(C(=O)Nc5ccc(O)c(NS(C)(=O)=O)c5)cc4)ccc3o2)cc1F (centres undefined)
R. CC(C)(C)c1ccc(N2C(=O)c3cc(F)ccc3C(C(N)=O)C2c2ccc3sc(-c4ccc(C(=O)Nc5ccc(O)c(NS(C)(=O)=O)c5)cc4)cc3c2)cc1Cl (centres undefined)
S. CS(=O)(=O)Nc1cc(NC(=O)c2ccc(-c3ccc4oc(C5C(C(N)=O)c6ccccc6C(=O)N5c5ccc6c(c5)CCCC6)cc4c3)cc2)ccc1O (centres undefined)
T. CS(=O)(=O)Nc1cc(NC(=O)c2ccc(-c3ccc4oc(C5C(C(N)=O)c6ccccc6C(=O)N5c5ccc(Br)c(Cl)c5)cc4c3)cc2)ccc1O (centres undefined)
Exercise: Put the compounds in ascending order of pIC50. Your answer should be the labels, listed in the requested order.
Solution: P, R, S, T, Q

A. CC(C)(C)c1ccc(N2C(=O)c3ccccc3C(C(N)=O)C2c2ccc3oc(-c4ccc(C(=O)Nc5ccc(O)c(NS(C)(=O)=O)c5)cc4)cc3c2)cc1Cl (centres undefined)
B. CC(C)(C)c1ccc(N2C(=O)c3cc(F)ccc3C(C(N)=O)C2C2=Cc3cc(-c4ccc(C(=O)Nc5ccc(O)c(NS(C)(=O)=O)c5)cc4)ccc3S2(=O)=O)cc1Cl (centres undefined)
Exercise: Recorded pIC50 values differ for A and B ; which one is higher? Let me know the label of the one you choose.
Solution: B
(B: 6.14, A: 5.55)

###

Assay: Cmax in mouse at 20 mg/kg, po by LC-MS/MS analysis
Type: ADME, organism-based
Details: in vivo, read-out: Cmax
endpoint-name: Cmax (nM)

molecule	Cmax [nM]
COc1ccc2c(c1)C(=O)N(c1ccc(C(C)(C)C)c(Cl)c1)C(c1cc3cc(-c4ccc(C(=O)Nc5ccc(O)c(NS(C)(=O)=O)c5)cc4)ccc3o1)C2C(N)=O (configuration not stated)	200
CC(C)(C)c1ccc(N2C(=O)c3ccccc3C(C(N)=O)C2c2cc3cc(-c4ccc(C(=O)Nc5ccc(O)c(NS(C)(=O)=O)c5)cc4)ccc3o2)cc1Cl (configuration not stated)	200

Source listed as ChEMBL document CHEMBL6182913.
